Values from patent US5840684A

System: Haemophilus influenzae RD
method.summary: broth micro-dilution MIC
Type: cell-based
experimental.parameters: Haemophilus influenzae RD
measured.quantity: MIC

The cases that follow already have their MIC on record.
compound | result.value
CNC(CC(C)C)C(=O)NC1C(=O)NC(CC(N)=O)C(=O)NC2C(=O)NC3C(=O)NC(C(=O)NC(C(=O)O)c4cc(O)cc(O)c4-c4cc3ccc4O)C(OC3CC(C)(N)C(O)C(C)O3)c3ccc(c(Cl)c3)Oc3cc2cc(c3OC2OC(CO)C(O)C(O)C2OC2CC(C)(NCCCCCCCCOc3ccccc3)C(O)C(C)O2)Oc2ccc(cc2Cl)C1O (stereo not drawn) | 32 µg/mL
CC(C)CC(C(=O)NC1C(=O)NC(CC(N)=O)C(=O)NC2C(=O)NC3C(=O)NC(C(=O)NC(C(=O)O)c4cc(O)cc(O)c4-c4cc3ccc4O)C(OC3CC(C)(N)C(O)C(C)O3)c3ccc(c(Cl)c3)Oc3cc2cc(c3OC2OC(CO)C(O)C(O)C2OC2CC(C)(NCc3ccc4ccccc4n3)C(O)C(C)O2)Oc2ccc(cc2Cl)C1O)N(C)Cc1ccc2ccccc2n1 (stereo not drawn) | > 64 µg/mL

For reference, reported MIC for CNC(CC(C)C)C(=O)NC1C(=O)NC(CC(N)=O)C(=O)NC2C(=O)NC3C(=O)NC(C(=O)NC(C(=O)O)c4cc(O)cc(O)c4-c4cc3ccc4O)C(OC3CC(C)(N)C(O)C(C)O3)c3ccc(c(Cl)c3)Oc3cc2cc(c3OC2OC(CO)C(O)C(O)C2OC2CC(C)(NCCCCC3CCCCC3)C(O)C(C)O2)Oc2ccc(cc2Cl)C1O (stereo not drawn) stands at 16 µg/mL

For reference, reported MIC for CNC(CC(C)C)C(=O)NC1C(=O)NC(CC(N)=O)C(=O)NC2C(=O)NC3C(=O)NC(C(=O)NC(C(=O)O)c4cc(O)cc(O)c4-c4cc3ccc4O)C(OC3CC(C)(NCc4ccc(-c5ccccc5)cc4)C(O)C(C)O3)c3ccc(c(Cl)c3)Oc3cc2cc(c3OC2OC(CO)C(O)C(O)C2OC2CC(C)(NCc3ccc(-c4ccccc4)cc3)C(O)C(C)O2)Oc2ccc(cc2Cl)C1O (stereo not drawn) stands at > 64 µg/mL

For reference, reported MIC for CNC(CC(C)C)C(=O)NC1C(=O)NC(CC(N)=O)C(=O)NC2C(=O)NC3C(=O)NC(C(=O)NC(C(=O)O)c4cc(O)cc(O)c4-c4cc3ccc4O)C(OC3CC(C)(N)C(O)C(C)O3)c3ccc(c(Cl)c3)Oc3cc2cc(c3OC2OC(CO)C(O)C(O)C2OC2CC(C)(NCc3c4c(cc5ccccc35)CCCC4)C(O)C(C)O2)Oc2ccc(cc2Cl)C1O (stereo not drawn) stands at 2 µg/mL

For reference, reported MIC for CNC(CC(C)C)C(=O)NC1C(=O)NC(CC(N)=O)C(=O)NC2C(=O)NC3C(=O)NC(C(=O)NC(C(=O)O)c4cc(O)cc(O)c4-c4cc3ccc4O)C(OC3CC(C)(N)C(O)C(C)O3)c3ccc(c(Cl)c3)Oc3cc2cc(c3OC2OC(CO)C(O)C(O)C2OC2CC(C)(NCc3ccc(-c4ccccc4C)c(C)c3)C(O)C(C)O2)Oc2ccc(cc2Cl)C1O (stereo not drawn) stands at 8 µg/mL

For reference, reported MIC for CNC(CC(C)C)C(=O)NC1C(=O)NC(CC(N)=O)C(=O)NC2C(=O)NC3C(=O)NC(C(=O)NC(C(=O)O)c4cc(O)cc(O)c4-c4cc3ccc4O)C(OC3CC(C)(N)C(O)C(C)O3)c3ccc(c(Cl)c3)Oc3cc2cc(c3OC2OC(CO)C(O)C(O)C2OC2CC(C)(NCc3ccc(-c4ccccc4C)cc3)C(O)C(C)O2)Oc2ccc(cc2Cl)C1O (stereo not drawn) stands at 16 µg/mL

For reference, reported MIC for CNC(CC(C)C)C(=O)NC1C(=O)NC(CC(N)=O)C(=O)NC2C(=O)NC3C(=O)NC(C(=O)NC(C(=O)O)c4cc(O)cc(O)c4-c4cc3ccc4O)C(OC3CC(C)(N)C(O)C(C)O3)c3ccc(c(Cl)c3)Oc3cc2cc(c3OC2OC(CO)C(O)C(O)C2OC2CC(C)(NCc3ccc(-c4ccc(Cl)cc4)cc3)C(O)C(C)O2)Oc2ccc(cc2Cl)C1O (stereo not drawn) [Compound 229, 4-[4-chlorophenyl]benzyl-A82846B] stands at 2 µg/mL

For reference, reported MIC for CC(C)CC(C(=O)NC1C(=O)NC(CC(N)=O)C(=O)NC2C(=O)NC3C(=O)NC(C(=O)NC(C(=O)O)c4cc(O)cc(O)c4-c4cc3ccc4O)C(OC3CC(C)(N)C(O)C(C)O3)c3ccc(c(Cl)c3)Oc3cc2cc(c3OC2OC(CO)C(O)C(O)C2OC2CC(C)(NCc3cc4ccccc4s3)C(O)C(C)O2)Oc2ccc(cc2Cl)C1O)N(C)Cc1cc2ccccc2s1 (stereo not drawn) stands at > 64 µg/mL

For reference, reported MIC for CNC(CC(C)C)C(=O)NC1C(=O)NC(CC(N)=O)C(=O)NC2C(=O)NC3C(=O)NC(C(=O)NC(C(=O)O)c4cc(O)cc(O)c4-c4cc3ccc4O)C(OC3CC(C)(N)C(O)C(C)O3)c3ccc(c(Cl)c3)Oc3cc2cc(c3OC2OC(CO)C(O)C(O)C2OC2CC(C)(NCc3ccc(I)s3)C(O)C(C)O2)Oc2ccc(cc2Cl)C1O (stereo not drawn) stands at 0.5 µg/mL

For reference, reported MIC for CNC(CC(C)C)C(=O)NC1C(=O)NC(CC(N)=O)C(=O)NC2C(=O)NC3C(=O)NC(C(=O)NC(C(=O)O)c4cc(O)cc(O)c4-c4cc3ccc4O)C(OC3CC(C)(N)C(O)C(C)O3)c3ccc(c(Cl)c3)Oc3cc2cc(c3OC2OC(CO)C(O)C(O)C2OC2CC(C)(NCc3ccccn3)C(O)C(C)O2)Oc2ccc(cc2Cl)C1O (stereo not drawn) stands at > 64 µg/mL

For reference, reported MIC for CC(C)CC(C(=O)NC1C(=O)NC(CC(N)=O)C(=O)NC2C(=O)NC3C(=O)NC(C(=O)NC(C(=O)O)c4cc(O)cc(O)c4-c4cc3ccc4O)C(OC3CC(C)(N)C(O)C(C)O3)c3ccc(c(Cl)c3)Oc3cc2cc(c3OC2OC(CO)C(O)C(O)C2OC2CC(C)(NCc3ccc4c(c3)CCCC4)C(O)C(C)O2)Oc2ccc(cc2Cl)C1O)N(C)Cc1ccc2c(c1)CCCC2 (stereo not drawn) stands at > 64 µg/mL
